Can you tell me inhibition for the items I'm about to list?
biological target: Protein kinase C alpha type (Homo sapiens) (UniProt P17252); settings: at 1 µM;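 also: reported value is the mean inhibition, measured within the GSK PKIS screening panel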
Remember to quote the unit after the number.

Could you tell me which inhibition is on file for "Fc1ccc(-c2ncn(C3CCNCC3)c2-c2ccnc(Oc3ccc(Oc4ccccc4)cc3)n2)cc1" ?
4.49%

Quick check: inhibition of COc1ccc2cc(-c3c(-c4ccncc4)nc(-c4ccc([S+](C)[O-])cc4C)n3C)ccc2c1 (stereo not drawn) ?
1.35%

Which inhibition value belongs to "COC(=O)Nc1nc2ccc(Sc3ccc(NC(=O)Nc4cc(C(F)(F)F)ccc4F)cc3)cc2[nH]1" ?
0.15%

# input compound: "CS(=O)(=O)CCNCc1cc(-c2cc3c(Nc4ccc(OCc5cccc(F)c5)c(Cl)c4)ncnc3s2)cs1" ; wanted: its inhibition
1.44%

GET /values?readout=inhibition&item= "Cc1ccc(C(=O)NC(C)C)cc1-c1ccc(C(=O)NCC2CC2)cc1"
0.46%

Give its inhibition value. Item: "Fc1ccc(-c2ncn(CCCN3CCOCC3)c2-c2ccncc2)cc1"
1.07%

Would you mind telling me what inhibition value was observed for "CN(C)CCOc1ccc(-c2cc(-c3ccc4c(c3)CCC4=NO)c(-c3ccncc3)o2)cc1" ?
1.32%

Please report the recorded inhibition for "CCS(=O)(=O)c1ccc(OC)c(Nc2ncc(-c3cccc(-c4ccccc4F)c3)o2)c1" .
1.66%

Reported inhibition for "C[C@@H](Oc1cc(-n2cnc3ccc(OCC4CCN(C)CC4)cc32)sc1C(N)=O)c1ccccc1Cl" : what is it?
5.2%

Entry "c1ccc(-c2n[nH]cc2-c2ccnc(-c3ccc(OCCN4CCOCC4)cc3)c2)nc1" has what inhibition?
1.97%

What value of measured inhibition is listed for "NC(=O)c1ccc(Oc2nccc(-c3c(-c4ccc(F)cc4)ncn3C3CCNCC3)n2)cc1" ?
2.25%

For the compound shown here, "CNC(=O)c1cncc(/C=C/c2c(C)cccc2C)c1" , give the reported inhibition.
-1.89%

# query: inhibition of entry "COc1cccc(/C=N/Nc2ncnc3c2cnn3-c2cccc(OC)c2)c1"
0.85%

inhibition for "O=C(NCC1CC1)c1ccc(-c2cccc(C(=O)NC3CC3)c2)cc1" ?
0.96%

Reported inhibition, compound "COc1ccc(-c2ccc3c(NC(=O)C4CC4)n[nH]c3n2)cc1" : ____
-0.98%

Would you mind telling me what inhibition value was observed for "CCc1nccc2c1nc(-c1nonc1N)n2CC" ?
2.71%

Requested read-out: inhibition. Entry: "COc1cc(Nc2ncc3c(C)nc(-c4cccc(Oc5ccccc5)c4)n3n2)cc(OC)c1OC"
0.77%

What inhibition value was documented for this compound, "COc1cccc(-n2cnc3c(N/N=C/c4ccncc4)ncnc32)c1" ?
-3.28%

Reported inhibition, compound "O=C(Nc1n[nH]c2nc(-c3ccc(O)cc3)c(Br)cc12)C1CC1" : ____
36.9%

For the compound shown here, "CCC(=O)Nc1ccc(C)c(-c2ccc(C(=O)NCC3CC3)cc2)c1" , give the reported inhibition.
0.8%

Would you kindly share the measured inhibition for "CS(=O)(=O)CCNCc1ccc(-c2ccc3ncnc(Nc4ccc(OCc5ccccc5)c(Br)c4)c3c2)o1" ?
-2.95%

// lookup inhibition for "O=C(Nc1n[nH]c2cc(-c3ccccc3)ccc12)C1CC1"
1.87%

I'd like to know its inhibition. The compound in question is "O=C(Nc1ccc(Oc2ccc3[nH]c(NC(=O)c4ccccc4)nc3c2)cc1)Nc1cc(C(F)(F)F)ccc1F"
1.8%

Value lookup for inhibition; key = "C#Cc1cccc(Nc2ncnc3ccc(OCCCCNCCS(C)(=O)=O)cc23)c1"
0.29%

Requested read-out: inhibition. Entry: "CN(C)c1ccc2c(c1)/C(=C/Nc1ccc(S(N)(=O)=O)cc1)C(=O)N2"
1.56%

Fill in the blank: the reported inhibition of "O=C(Nc1n[nH]c2cc(-c3cc(F)ccc3F)ccc12)C1CC1" is ____.
1.99%

Name the recorded inhibition for "Cc1nnc(-c2ccc(C)c(-c3ccc(C(=O)NCc4ccc(Cl)cc4)cc3)c2)o1" .
-1.62%

For "O=C1Nc2ccccc2/C1=C/Nc1ccc(-n2cncn2)cc1" , what is its reported inhibition?
1.82%
